pIC50, ypDHQD (type II DHQD) (Yersinia pestis, UniProt Q8ZAX1), per-entry values.
pIC50: −log10 of the molar value.
property_measured: pIC50

{"columns": ["compound", "target_of_assay", "property_measured", "observed_result"],
 "data": [
  ["COc1ccc2nc(NS(=O)(=O)c3cc(Cl)ccc3Cl)sc2c1 [Compound 2]", "ypDHQD (type II DHQD) (Yersinia pestis, UniProt Q8ZAX1)", "pIC50", "< 3.70"],
  ["O=C(O)c1ccccc1NC(=O)c1csc2c1CCCC2 [Compound 3]", "ypDHQD (type II DHQD) (Yersinia pestis, UniProt Q8ZAX1)", "pIC50", "< 3.70"],
  ["O=S(=O)(Nc1nc(-c2ccccc2)cs1)c1cc(Cl)ccc1Cl [Compound 1]", "ypDHQD (type II DHQD) (Yersinia pestis, UniProt Q8ZAX1)", "pIC50", "< 3.70"]
]}
